- System: Saccharomyces cerevisiae BY4741 SeMeCo community
- assay summary: z-score of subpopulation abundance vs DMSO median, subpopulation auxotrophic for HLUM; higher = larger share of this subpopulation than in DMSO controls
- assay context: 10 µM; 24 h; SM minimal medium; subpopulation (auxotrophy): HLUM
Structures can show the parent of a compound that is named as a salt.
experimental endpoint: z-score of subpopulation abundance
Could you keep your reply to the number by itself?

compound | experimental endpoint | measured
CC1=Nc2ccc(Cl)cc2S(=O)(=O)N1 [Diazoxide] | z-score of subpopulation abundance | -1.32
CC1=C(C(=O)O)N2C(=O)[C@@H](NC(=O)[C@H](N)C3=CCC=CC3)[C@H]2SC1 [Cephradine monohydrate] | z-score of subpopulation abundance | 0.01
C[C@]12CC[C@@H]3c4ccc(O)cc4CC[C@H]3[C@@H]1C[C@@H](O)[C@@H]2O | z-score of subpopulation abundance | -0.69
CC(C)N1CCN(c2ccc(OCC3COC(Cn4cncn4)(c4ccc(Cl)cc4Cl)O3)cc2)CC1 (stereo not drawn) | z-score of subpopulation abundance | -0.55
Cc1ccc(Sc2ccccc2N2CCNCC2)c(C)c1 | z-score of subpopulation abundance | -0.06

Query block: What value of z-score of subpopulation abundance on Saccharomyces cerevisiae BY4741 SeMeCo community does CC1(C)S[C@@H]2[C@H](NC(=O)Cc3ccccc3)C(=O)N2[C@H]1C(=O)O [Penicillin G Sodium] have?
Result block: 1.41

Query block: Query COc1ccc(C2CNC(=O)C2)cc1OC1CCCC1 (stereo not drawn) [S- (+)-Rolipram] next
Result block: -1.15

Query block: Query Cc1nccn1CC1CCc2c(c3ccccc3n2C)C1=O (stereo not drawn) [Ondansetron Hydrochloride Dihydrate] next
Result block: -0.23

###

- Tested on: Saccharomyces cerevisiae BY4741 SeMeCo community
- assay summary: z-score of subpopulation abundance vs DMSO median, subpopulation auxotrophic for HM; higher = larger share of this subpopulation than in DMSO controls
- assay context: 10 µM; 24 h; SM minimal medium; subpopulation (auxotrophy): HM
experimental endpoint: z-score of subpopulation abundance

Known z-score of subpopulation abundance results, listed for orientation:
molecule | target desc | z-score of subpopulation abundance
C[C@]1(Cn2ccnn2)[C@H](C(=O)O)N2C(=O)C[C@H]2S1(=O)=O | Saccharomyces cerevisiae BY4741 SeMeCo community | -0.74
Cc1onc(-c2ccccc2Cl)c1C(=O)N[C@@H]1C(=O)N2[C@@H]1SC(C)(C)[C@@H]2C(=O)O [Cloxacillin Sodium] | Saccharomyces cerevisiae BY4741 SeMeCo community | -0.01
Cc1cc(-n2c(=O)[nH]c(=O)n(C)c2=O)ccc1Oc1ccc(SC(F)(F)F)cc1 | Saccharomyces cerevisiae BY4741 SeMeCo community | 0.1

Moving on to another molecule below.
Query block: // z-score of subpopulation abundance lookup, key: C1N2CN3CN1CN(C2)C3
Result block: 1.35

###

- Test system: Saccharomyces cerevisiae BY4741 SeMeCo community
- assay summary: z-score of subpopulation abundance vs DMSO median, subpopulation auxotrophic for HM; higher = larger share of this subpopulation than in DMSO controls
- assay context: 10 µM; 24 h; SM minimal medium; subpopulation (auxotrophy): HM
Counter-ions that a name gives are not always drawn.
z-score of subpopulation abundance vs 0.1: at or above is 1, below is -1.

Past entries and their recorded results:
molecule | class assignment
Cc1ccc(S(=O)(=O)NC(=O)NN2CC3CCCC3C2)cc1 (stereo not drawn) [Gliclazide] | -1
CN1C2CCC1CC(OC(=O)C(O)c1ccccc1)C2 (stereo not drawn) [Homatropine Bromide] | -1
CCn1cc(C(=O)O)c(=O)c2ccc(C)nc21 | -1
CC(C)[C@H]1CC[C@H](C(=O)N[C@H](Cc2ccccc2)C(=O)O)CC1 [Nateglinide] | 1
OCCOCCN1CCN(C2=Nc3ccccc3Sc3ccccc32)CC1 [Quetiapine Fumarate] | 1
CN[C@@H]1[C@H](O[C@H]2[C@H](O[C@H]3[C@H](O)[C@@H](O)[C@H](NC(=N)N)[C@@H](O)[C@@H]3NC(=N)N)O[C@@H](C)[C@]2(O)CO)O[C@@H](CO)[C@H](O)[C@H]1O [Dihydrostreptomycin sulfate] | -1
COC(=O)C1=C(C)NC(C)=C(C(=O)OC(C)(C)CN(C)CCC(c2ccccc2)c2ccccc2)C1c1cccc([N+](=O)[O-])c1 (stereo not drawn) [Lercanidipine hydrochloride] | 1

Lab note: next molecule to report on.
Query block: Is z-score of subpopulation abundance for Cc1ccc(Cl)c(Nc2ccccc2C(=O)O)c1Cl [Meclofenamate Sodium] at or above 0.1?
Result block: -1

###

Listed here are compounds together with their documented z-score of subpopulation abundance.
- Test system: Saccharomyces cerevisiae BY4741 SeMeCo community
- assay summary: z-score of subpopulation abundance vs DMSO median, subpopulation auxotrophic for UM; higher = larger share of this subpopulation than in DMSO controls
- assay context: 10 µM; 24 h; SM minimal medium; subpopulation (auxotrophy): UM
Where a name gives a salt, the structure may show the parent alone.
Could you keep your reply to the number by itself?

Known z-score of subpopulation abundance results, listed for orientation:
compound | z-score of subpopulation abundance
CCC1(c2ccccc2)C(=O)NCNC1=O [Primidone] | 0.54
CO[C@H]1C[C@@H]2CC[C@@H](C)[C@@](O)(O2)C(=O)C(=O)N2CCCC[C@H]2C(=O)O[C@H]([C@H](C)C[C@@H]2CC[C@@H](OC(=O)C(C)(CO)CO)[C@H](OC)C2)CC(=O)[C@H](C)/C=C(\C)[C@@H](O)[C@@H](OC)C(=O)[C@H](C)C[C@H](C)/C=C/C=C/C=C/1C | 11.2
Cc1c(C)c2c(c(C)c1O)CCC(C)(CCCC(C)CCCC(C)CCCC(C)C)O2 (configuration not stated) [Vitamin E] | -0.04
C[C@@H](O)[C@H]1C(=O)N2C(C(=O)O)=C([C@H]3CCCO3)S[C@H]12 [Faropenem Sodium] | 1.27

Query block: // z-score of subpopulation abundance lookup, key: CC(=O)NC[C@H]1CN(c2ccc(N3CCOCC3)c(F)c2)C(=O)O1 [Linezolid]
Result block: 0.29

Query block: Query Cc1ccc(-c2ncc(Cl)cc2-c2ccc(S(C)(=O)=O)cc2)cn1 [Etoricoxib] next
Result block: 0.52

Query block: Query CCN(CC)CCNC(=O)c1cc(S(C)(=O)=O)ccc1OC [Tiapride Hydrochloride] next
Result block: 0.43

Query block: Query NC(CO)(CO)CO [Trometamol] next
Result block: 0.88

Query block: Query C#CCN(C)Cc1ccccc1 [Pargyline hydrochloride] next
Result block: -0.55

###

- Tested on: Saccharomyces cerevisiae BY4741 SeMeCo community
- assay summary: z-score of subpopulation abundance vs DMSO median, subpopulation auxotrophic for U; higher = larger share of this subpopulation than in DMSO controls
- assay context: 10 µM; 24 h; SM minimal medium; subpopulation (auxotrophy): U
Structures can show the parent of a compound that is named as a salt.
Listed here are compounds together with their documented z-score of subpopulation abundance.
Could you keep your reply to the number by itself?

Known z-score of subpopulation abundance results, listed for orientation:
compound | experimental endpoint | measured
CCCCCCCCN=C(N)NC(N)=NCc1ccc(Cl)c(Cl)c1 [Olanexidine Hydrochloride semihydrate] | z-score of subpopulation abundance | -3.91
COc1cccc(-c2c(C)n(Cc3c(F)cccc3C(F)(F)F)c(=O)n(C[C@H](NCCCC(=O)O)c3ccccc3)c2=O)c1F [Elagolix Sodium] | z-score of subpopulation abundance | 0.24
NCCNc1ccc(NCCN)c2c1C(=O)c1ccncc1C2=O [Pixantrone Maleate] | z-score of subpopulation abundance | 2.84

Moving on to another compound below.
Query block: // z-score of subpopulation abundance lookup, key: CC(=O)N[C@H]1[C@H]([C@H](O)[C@H](O)CO)OC(C(=O)O)=C[C@@H]1NC(=N)N [Zanamivir]
Result block: -1.03

###

- Test system: Saccharomyces cerevisiae BY4741 SeMeCo community
- assay summary: z-score of subpopulation abundance vs DMSO median, subpopulation auxotrophic for HM; higher = larger share of this subpopulation than in DMSO controls
- assay context: 10 µM; 24 h; SM minimal medium; subpopulation (auxotrophy): HM
Structures can show the parent of a compound that is named as a salt.
experimental endpoint: z-score of subpopulation abundance
Could you keep your reply to the number by itself?

Known z-score of subpopulation abundance results, listed for orientation:
compound | measured
CCCOc1ccc2[nH]c(NC(=O)OC)nc2c1 [Oxibendazole] | 0.95
COc1ccc2cc3[n+](cc2c1OC)CCc1cc2c(cc1-3)OCO2 [Berberine Sulfate] | 0.24
CC1(C)S[C@@H]2[C@H](NC(=O)Cc3ccccc3)C(=O)N2[C@H]1C(=O)O.CCN(CC)CCOC(=O)c1ccc(N)cc1 [Penicillin G Procaine] | 0.69

Moving on to another compound below.
Query block: // z-score of subpopulation abundance lookup, key: Nc1ccc(/N=N/c2ccccc2)c(N)n1 [Phenazopyridine HCl]
Result block: 0.02

###

- System: Saccharomyces cerevisiae BY4741 SeMeCo community
- assay summary: z-score of subpopulation abundance vs DMSO median, subpopulation auxotrophic for M; higher = larger share of this subpopulation than in DMSO controls
- assay context: 10 µM; 24 h; SM minimal medium; subpopulation (auxotrophy): M
Counter-ions that a name gives are not always drawn.
Listed here are molecules together with their documented z-score of subpopulation abundance.
Could you keep your reply to the number by itself?

Known z-score of subpopulation abundance results, listed for orientation:
molecule | target desc | measured
COc1cc(O)c(C(=O)Nc2nc(C(=O)NCCN(C(C)C)C(C)C)cs2)cc1OC [Acotiamide hydrochloride] | Saccharomyces cerevisiae BY4741 SeMeCo community | -0.47
CO/N=C(\C(=O)N[C@@H]1C(=O)N2C(C(=O)O)=C(CSc3nc(C)c(CC(=O)O)s3)CS[C@H]12)c1csc(N)n1 [Cefodizime Sodium] | Saccharomyces cerevisiae BY4741 SeMeCo community | -0.97
CCCCCCCCCC(=O)NC1C(Oc2c3cc4cc2Oc2ccc(cc2Cl)C(OC2OC(CO)C(O)C(O)C2NC(C)=O)C2NC(=O)C(NC(=O)C4NC(=O)C4NC(=O)C(Cc5ccc(c(Cl)c5)O3)NC(=O)C(N)c3ccc(O)c(c3)Oc3cc(O)cc4c3)c3ccc(O)c(c3)-c3c(OC4OC(CO)C(O)C(O)C4O)cc(O)cc3C(C(=O)O)NC2=O)OC(CO)C(O)C1O (stereo unspecified) [Teicoplanin] | Saccharomyces cerevisiae BY4741 SeMeCo community | 0.97
CCC(=O)Oc1ccc2c(c1)CCC1C2CCC2(C)C(OC(=O)CC)CCC12 (stereo not drawn) [Estradiol dipropionate(17-Beta-Estradiol-3,17-Dipropionate)] | Saccharomyces cerevisiae BY4741 SeMeCo community | 0.21
CO[C@H]1O[C@@H]2O[C@@]3(C)CC[C@H]4[C@H](C)CC[C@@H]([C@H]1C)[C@@]24OO3 [Artemether] | Saccharomyces cerevisiae BY4741 SeMeCo community | -4.52

Moving on to another molecule below.
Query block: // z-score of subpopulation abundance lookup, key: O=C1c2c(O)ccc(O)c2C(=O)c2c(NCCNCCO)ccc(NCCNCCO)c21 [Mitoxantrone 2HCl]
Result block: -14
